Let's look at some compounds and their measured activity change, less the hit threshold.
target: Potassium voltage-gated channel subfamily KQT member 2 (Rattus norvegicus); assay: KCNQ2 potentiation in CHO cells – cell-based, FluxOR thallium flux, counter-screen for hERG block protector project, confirmation (AID 1942); conditions: FluxOR thallium flux fluorescence, at 10 µM, stronger effect = higher value;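 also: normalized value minus buffer-control mean plus three SD of buffer wells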
Out of some 2,400 compounds screened, about 580 (24%) were called active. A selection follows.

1) COc1ccc(NC(=O)c2ccc(NC3=NC4CS(=O)(=O)CC4S3)cc2)cc1 (stereo unspecified): -19.9% (inactive)
2) C/C(=N\NC(=O)c1ccoc1C)c1cccc2ccccc12: 55% (active)
3) C/C(=N\NC(=O)c1cc2ccccc2cc1O)c1cc2ccccc2o1: 82% (active)
4) COc1ccc(C(=O)Nc2ccc(-n3nncc3C(C)(C)C)cc2)cc1: 17.5% (active)
5) Cc1ccc(/C=N/NC(=O)c2cc(C)oc2C)o1: -17.8% (inactive)

With those in mind, consider the next compound.
Return activity change, less the hit threshold (reported value) for this compound: "C/C(=N\NC(=S)Nc1cccc(C)c1)c1ccco1"
-13.9% (inactive)

----------
Let's look at some compounds and their measured activity change, less the hit threshold.
target: Potassium voltage-gated channel subfamily KQT member 2 (Rattus norvegicus); experiment: KCNQ2 potentiation in CHO cells – cell-based, FluxOR thallium flux, counter-screen for hERG block protector project, confirmation (AID 1942); conditions: FluxOR thallium flux fluorescence, at 10 µM, stronger effect = higher value;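 also: normalized value minus buffer-control mean plus three SD of buffer wells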
About 580 (24%) of roughly 2,400 compounds were called active. Not all results are given here.
All answers are understood in %, so give the number only.

1) CC(=O)c1n[nH]nc1NC(=O)c1ccccc1: -9.7
2) Nc1ccc(Cl)c(NC(=O)c2cccs2)c1: -12.3
3) Cc1cc(C(=O)NNC(=O)c2cccs2)nn1C(C)(C)C: -14.9

Return activity change, less the hit threshold (reported value) for this compound: COc1ccc(CCNC(=O)C2CCCN(S(C)(=O)=O)C2)cc1 (stereo unspecified)
-23.4

Return activity change, less the hit threshold (reported value) for this compound: Cc1ccc(C(=O)NC(C)c2ccc(C)c(C)c2)s1 (stereo unspecified)
24.3

Return activity change, less the hit threshold (reported value) for this compound: O=C(NCc1ccco1)c1ccc(OCC2CCCO2)cc1 (stereo unspecified)
-26.4

Return activity change, less the hit threshold (reported value) for this compound: "CC(C)c1cccc(C(C)C)c1NC(=O)COC(=O)[C@H](C)NC(N)=O"
-17.5

Return activity change, less the hit threshold (reported value) for this compound: "Cc1cc(C(=O)NCCN2C(=O)S/C(=C\c3cccs3)C2=O)ccc1[N+](=O)[O-]"
-16.8

Return activity change, less the hit threshold (reported value) for this compound: "Cc1nc2c(C(=O)NCCc3ccccc3)c[nH]n2c(=O)c1Cl"
-7.3

Return activity change, less the hit threshold (reported value) for this compound: "CC1=NN(c2ccccc2)C(=O)/C1=C/c1ccc(-c2ccc(C)c(C(=O)O)c2)o1"
-18.9

Return activity change, less the hit threshold (reported value) for this compound: Cc1cc(C(=O)CCC(=O)NC(C)c2ccc(S(N)(=O)=O)cc2)c(C)s1 (stereo unspecified)
-10

----------
target: Potassium voltage-gated channel subfamily KQT member 2 (Rattus norvegicus); assay: KCNQ2 potentiation in CHO cells – cell-based, FluxOR thallium flux, counter-screen for hERG block protector project, confirmation (AID 1942); conditions: FluxOR thallium flux fluorescence, at 10 µM, stronger effect = higher value;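 also: normalized value minus buffer-control mean plus three SD of buffer wells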
In all, about 2,400 compounds went through this assay and about 580 (24%) were called active. A selection follows.
outcome.measure: activity change, less the hit threshold

Here is how some molecules turned out for activity change, less the hit threshold.
1) O=C(NC(=S)NCCC1=CCCCC1)c1ccco1: 42.7% (active)
2) O=C(O)CCCNC(=O)c1nn(Cc2ccccc2)c(=O)c2ccccc12: -5.2% (inactive)
3) NC(=O)[C@@H]1CCCN1Cc1nc(Cc2ccccc2Cl)no1: -17.5% (inactive)
4) O=C(NC(=S)NCCC1=CCCCC1)c1ccc(Br)o1: 3.5% (active)

Return activity change, less the hit threshold (reported value) for this molecule: "Cc1cc(C)nc(NS(=O)(=O)c2ccc(NC(=O)Cc3ccccc3)cc2)n1"
-11.1% (inactive)

Return activity change, less the hit threshold (reported value) for this molecule: "Cc1nc2c(C(=O)NCc3cccs3)cnn2c(C)c1Cc1ccccc1"
-25.2% (inactive)

----------
target: Potassium voltage-gated channel subfamily KQT member 2 (Rattus norvegicus); test: KCNQ2 potentiation in CHO cells – cell-based, FluxOR thallium flux, counter-screen for hERG block protector project, confirmation (AID 1942); conditions: FluxOR thallium flux fluorescence, at 10 µM, stronger effect = higher value;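 also: normalized value minus buffer-control mean plus three SD of buffer wells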
The whole screen tested about 2,400 compounds, of which about 580 (24%) were called active. Only a sample is shown.
outcome.measure: activity change, less the hit threshold (%)
All answers are understood in %, so give the number only.

1. O=C(NN1C(=O)C2C(c3ccccc3)C=CC(c3ccccc3)C2C1=O)c1ccncc1 (stereo not drawn): -42.5
2. CC(C)OC(=O)CSc1nnc(C2CCCCC2)n1N: -21.8
3. Nc1cc(=O)[nH]c(SCC(=O)N2CCCCC2)n1: -21.9
4. COc1cccc(/C=N/n2c(SC)nnc2-c2ccccc2)c1O: 2.8

Return activity change, less the hit threshold (reported value) for this compound: "CC1=CCC[C@@H]2[C@@](C)(CC/C(C)=C/C(=O)O)[C@H](C)CC[C@@]12C"
-3.2

Return activity change, less the hit threshold (reported value) for this compound: CC(=O)N1c2ccc(N=Cc3cc(Br)cc(Br)c3O)cc2CC1C (stereo not drawn)
0.4

Return activity change, less the hit threshold (reported value) for this compound: Cc1nnc(N2C(=O)C(=O)/C(=C(\O)c3ccc4c(c3)CC(C)O4)C2c2ccccc2)s1 (stereo not drawn)
-7.2

Return activity change, less the hit threshold (reported value) for this compound: "COc1cc(-c2nnc(SCC(=O)O)n2-c2ccccc2)cc(OC)c1OC"
-13.9

Return activity change, less the hit threshold (reported value) for this compound: "O=c1c2cc(Br)ccc2nc(-c2cccc(Cl)c2)n1O"
111

----------
target: Potassium voltage-gated channel subfamily KQT member 2 (Rattus norvegicus) (UniProt O88943); assay: KCNQ2 potentiation in CHO cells – cell-based, FluxOR thallium flux, counter-screen for hERG block protector project, confirmation (AID 1942); details: FluxOR thallium flux fluorescence, at 10 µM;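 also: normalized value minus buffer-control mean plus three SD of buffer wells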
Sequence (O88943 whole entry, looked up): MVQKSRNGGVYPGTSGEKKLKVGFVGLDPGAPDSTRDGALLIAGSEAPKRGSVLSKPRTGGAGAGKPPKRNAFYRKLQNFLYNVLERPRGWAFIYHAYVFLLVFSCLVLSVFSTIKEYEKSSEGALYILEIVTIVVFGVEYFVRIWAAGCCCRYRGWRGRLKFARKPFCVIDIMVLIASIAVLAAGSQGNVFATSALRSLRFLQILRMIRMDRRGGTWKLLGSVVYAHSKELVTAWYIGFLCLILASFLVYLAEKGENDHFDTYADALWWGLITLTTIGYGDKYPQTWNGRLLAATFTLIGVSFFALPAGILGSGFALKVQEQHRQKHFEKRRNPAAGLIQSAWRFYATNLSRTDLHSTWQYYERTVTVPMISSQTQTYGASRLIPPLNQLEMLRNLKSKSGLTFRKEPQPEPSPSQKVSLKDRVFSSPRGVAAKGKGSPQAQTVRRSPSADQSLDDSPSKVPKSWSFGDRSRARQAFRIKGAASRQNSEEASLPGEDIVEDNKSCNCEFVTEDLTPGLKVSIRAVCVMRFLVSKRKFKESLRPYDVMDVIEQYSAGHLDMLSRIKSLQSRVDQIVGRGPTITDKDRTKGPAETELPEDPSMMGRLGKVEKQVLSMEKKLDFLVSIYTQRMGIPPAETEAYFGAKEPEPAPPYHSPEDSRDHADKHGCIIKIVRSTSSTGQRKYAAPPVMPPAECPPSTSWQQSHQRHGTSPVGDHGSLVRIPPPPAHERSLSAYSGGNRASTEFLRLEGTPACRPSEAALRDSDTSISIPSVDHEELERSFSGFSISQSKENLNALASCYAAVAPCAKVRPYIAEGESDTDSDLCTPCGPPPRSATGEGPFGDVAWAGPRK
Among all 2,400 compounds or so, about 580 (24%) were called active.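 How the source made its calls: active means activity change at or above the mean plus 3 SD of buffer wells without dofetilide, per plate; inactive means the rest.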 Only a sample is shown.
Can you answer with just one of these options? t (active), f (inactive)

1. COc1cc(/C=C2/SC(=S)N(CC(=O)O)C2=O)ccc1OCC(=O)Nc1ccc(C)c(C)c1: f
2. O=C(c1ccc2c(c1)N(Cc1ccccc1F)C(=O)c1ccccc1S2(=O)=O)N1CCCC1: f

Can you look up the reported call for "COc1ccc(N2CCN(C(=S)Nc3cccc(OC)c3)CC2)cc1" for me?
f

Can you look up the reported call for "CC(C)OC(=O)c1c(NS(=O)(=O)c2ccccc2)sc2c1CCCC2" for me?
t

Can you look up the reported call for "O=C(/C=C/Nc1ccccc1)C(F)(F)F" for me?
f

Can you look up the reported call for "CCOC(=O)c1c(C)[nH]c(C)c1S(=O)(=O)N1CCCCC1" for me?
f

Can you look up the reported call for COC(=O)c1c(NC(=O)CN2CCOCC2)sc2c1CCC(C)C2 (stereo unspecified) for me?
f

Can you look up the reported call for CC1CCCCC1NC(=S)NC(=O)c1cccs1 (stereo unspecified) for me?
t

Can you look up the reported call for CC1CCCCC1NC(=S)NC(=O)c1sc2ccccc2c1Cl (stereo unspecified) for me?
f

Can you look up the reported call for COc1ccccc1C1C(C(=O)c2ccc(C)o2)=C(O)C(=O)N1c1cc(C)on1 (stereo unspecified) for me?
f

Can you look up the reported call for "COC(=O)c1ccc(NN=Nc2ccc(C)cc2)cc1" for me?
f

----------
target: Potassium voltage-gated channel subfamily KQT member 2 (Rattus norvegicus); assay: KCNQ2 potentiation in CHO cells – cell-based, FluxOR thallium flux, counter-screen for hERG block protector project, confirmation (AID 1942); settings: FluxOR thallium flux fluorescence, at 10 µM, stronger effect = higher value;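 also: normalized value minus buffer-control mean plus three SD of buffer wells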
Hit rate of the full screen: of about 2,400 compounds, about 580 (24%) were called active. Not all results are given here.
outcome.measure: activity change, less the hit threshold

1) CCOc1ccc(NC(=O)CSc2nc3nc(C)cc(C)n3n2)cc1: -14.8% (inactive)
2) CCCCNC1=CC(=O)C(=O)c2ccccc21: -18.9% (inactive)
3) O=C(CCN1C(=O)/C(=C\C=C\c2ccccc2)SC1=S)Nc1cccc(C(=O)O)c1: -20.7% (inactive)

With those in mind, consider the next compound.
Return activity change, less the hit threshold (reported value) for this compound: "O=C(Nc1cccnc1)c1ccc(COc2cc(Cl)ccc2Cl)o1"
-20% (inactive)
